Recorded values, source PubChem BioAssay (NCI).

Test system: SF-539 CNS
experiment.notes: NCI-60 one-dose screen, 48 h
condition.info: 10 µM unless noted
Description: Cells are grown in 96 well plates and exposed to the test compound for 48 hours. Compounds are tested at a single concentration, which is 10^-5 M for most compounds. The reported endpoint is percent growth (GI% or GIPRCNT), where numbers from 0 - 100% represent growth inhibition, and numbers from -100% - 0 represent cell death. For example, a value of 40 represents 60% growth inhibition. A value of 0 means no net growth occurred over the course of the experiment. […]
Compounds without any hit were thinned out: in the full panel of roughly 83,000, 20% have a hit. The source made the active and inactive calls. How the source made its calls: active means growth percent below 10; inactive means the rest.
Response enum: 1.0 for active, 0.0 for inactive

Q: # fetch the recorded call for COc1ccccc1NC(=O)c1sc2nc3c(cc2c1N)C(=O)CCC3 here
Ans: 0.0

Q: Dear all, I need the recorded test outcome for Cc1ccc2nc(-c3ccc(N(C)C)c(Br)c3)cn2c1 , thank you.
Ans: 0.0

Q: How was C/C(=C\CCc1ccsc1)CC/C=C(\C)CCCN1CCSCC1 classified in this test?
Ans: 0.0

Q: Field: outcome | Entry: CCOC(=O)C1C(=O)NC(C(=O)OCC)(C(=O)OCC)C1CC (stereo unspecified)
Ans: 0.0

Q: Short answer needed: outcome of this test for C(=C1c2ccccc2-c2ccccc21)c1ccncc1 ?
Ans: 0.0

Q: # fetch the recorded call for COc1ccc2c(c1)[n+](=O)c(C(=O)/C=C/c1cc(OC)c(OC)c(OC)c1)c(C)n2[O-] here
Ans: 0.0

Q: Record lookup: outcome of this test for O=c1ncc(-c2ccc(C(F)(F)F)cc2)c(NC2CCCCCC2)[nH]1 ?
Ans: 0.0

Q: Could you please tell me the result logged for N#Cc1c(-c2ccc(F)cc2)n2c(nc1=O)SC(=O)C2=O in this assay?
Ans: 0.0

Q: So what was the verdict on Nc1ccccc1-c1ccn[nH]1 in this test?
Ans: 0.0

Q: Dear colleague, could you share the recorded outcome for O=C(N/N=C/c1cccc([N+](=O)[O-])c1)c1ccc(Br)o1 when you have a moment?
Ans: 0.0

Q: // param item: OCc1n(Cc2ccc3ccccc3c2)cc[n+]1Cc1ccc2ccccc2c1 ; yields the recorded call
Ans: 0.0

Q: Hi, do you know how O=CNc1ccc2c(c1)Cc1cc([N+](=O)[O-])ccc1-2 came out in this test?
Ans: 0.0

Q: Recorded test outcome, item COc1ccc2c(c1)[n+](=O)c(/C=C/C(=O)c1cc(OC)c(OC)c(OC)c1)c(C)n2[O-]
Ans: 0.0

Q: Test call, this molecule: Nc1ncnc2c1CN(Cc1ccccc1)CC2
Ans: 0.0

Q: Test call, this molecule: CCOC(=O)OCC(=O)[C@@]1(O)CC[C@H]2[C@@H]3CCC4=CC(=O)CC[C@]4(C)[C@H]3[C@@H](O)C[C@@]21C
Ans: 0.0

Q: What did the test return for COc1ccc(NS(=O)(=O)N2CCCCC2)cc1 ?
Ans: 0.0

Q: Name the outcome recorded for COc1ccc(/C=C2\CCc3ccccc3C2=O)cc1 in the assay.
Ans: 0.0

Q: # lookup: test call for CN[C@@H]1C(OC2[C@H](O[C@H]3[C@H](O)[C@@H](O)[C@H](N=C(N)N)[C@@H](O)[C@@H]3N=C(N)N)OC(C)[C@]2(O)CO)OC(CO)C(O)C1O (stereo partly specified)
Ans: 0.0

Q: For C[C@H](C(=O)N[C@@H](Cc1ccc(-c2ccccc2)cc1)C(=O)NC1CC(C)(C)NC(C)(C)C1)c1ccc(-c2ccccc2)c(F)c1 , what call appears in the results of this test?
Ans: 1.0

Q: In this assay, the call recorded for COc1cc(C(=O)c2cc3c(cc2C)OCO3)cc(OC)c1OC was what?
Ans: 1.0

Q: Answer briefly: the call reported for COc1ccc(-c2nc3sc4c(c3c(=O)[nH]2)CCCCCC4)cc1 in this assay.
Ans: 0.0

Q: Could you check what this test reported for COc1cnc2c(c1)C(=O)c1c-2n(CCCn2ccnc2)c(=O)c2cc(F)ccc12 ?
Ans: 1.0

Q: Name the outcome recorded for NS(=O)(=O)c1ccc(-n2ncc3c(SCc4ccccc4)ncnc32)cc1 in the assay.
Ans: 0.0

Q: Hi, sorry to bother you, what did the test record for Cc1onc(-c2ccccc2Cl)c1C(=O)N[C@@H]1C(=O)N2[C@@H]1SC(C)(C)[C@@H]2C(=O)O ?
Ans: 0.0

Q: Record lookup: outcome of this test for O=c1[nH]c(SCc2ccccc2)nc2nc(Nc3ccc(NC(=S)Nc4ccccc4)cc3)nc(-c3ccc(O)cc3O)c12 ?
Ans: 0.0

Q: In this assay, the call recorded for O=C(NCCNC(=O)Oc1cccc2ccccc12)Oc1cccc2ccccc12 was what?
Ans: 0.0

Q: I would be grateful if you could indicate the recorded call for O=C(COc1cccc(/C=C2\Oc3ccc4ccccc4c3C2=O)c1)c1ccc(Cl)cc1 .
Ans: 0.0

Q: Hi, sorry to bother you, what did the test record for COc1ccc2c(c1)sc1nc(-c3ccc(Br)cc3)cn12 ?
Ans: 0.0

Q: Answer briefly: the call reported for CSc1nc2nc3c(c(-c4ccc(C)cc4)c2c(=O)[nH]1)CN(C)C/C3=C\c1ccc(C)cc1 in this assay.
Ans: 0.0

Q: Any idea what this test logged for Cn1ccnc1C(=O)/C=C/c1ccc(C(=O)Nc2nc3ccccc3[nH]2)cc1 ?
Ans: 1.0

Q: Record request — test call for c1ccc(Nc2ccc(Nc3nc(-c4ccccc4)nc4ccccc34)cc2)cc1
Ans: 0.0

Q: In this assay, the call recorded for O=C1C=CC(=O)N1c1ccccn1 was what?
Ans: 0.0

Q: Could you check what this test reported for O=C1OC2(c3ccccc31)c1ccccc1-c1ccccc12 ?
Ans: 0.0

Q: Give the logged outcome of this assay for the following molecule: CCOC(=O)/C=C1/SC(=Nc2ccc(C#N)cc2)N(Cc2ccco2)C1=O
Ans: 0.0

Q: # outcome recorded in this test, key = O=C(N/N=C/c1ccc(Cl)cc1Cl)c1ccccc1Nc1cccc(C(F)(F)F)c1
Ans: 1.0

Q: # lookup: test call for O=C(CNc1ccc2c(c1)C(=O)c1ccccc1C2=O)Nc1ccc2c(c1)C(=O)c1ccccc1C2=O
Ans: 1.0

Q: Per the assay record, what outcome was assigned to O=[N+]([O-])c1cc([N+](=O)[O-])c(N2CCCC2)cc1NN=C(c1ccc(O)cc1)c1ccc(O)cc1 ?
Ans: 0.0

Q: Assay result, entry COc1cnc2c(c1)C(=O)c1c-2n(CCCNC(C)C)c(=O)c2cc(F)ccc12 — outcome?
Ans: 1.0

Q: # fetch the recorded call for O=C1c2cc3c(cc2-c2c1c1ccc(Cl)cc1c(=O)n2CCCNCCO)OCO3 here
Ans: 1.0

Q: Give the logged outcome of this assay for the following molecule: COc1ccc(C(=O)COc2ccc(/C=C3\Oc4ccc5ccccc5c4C3=O)cc2)cc1
Ans: 0.0

Q: Answer briefly: the call reported for O=C1NCCc2c1noc2-c1ccccc1 in this assay.
Ans: 0.0
